# Test system: Crude diglycosidase
# TEST_NAME: Examination of substrate concentration in the conversion into isoflavone aglycons by diglycosidase using soybean materials;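 note: percent of the isoflavone family total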
# Type: biochemical, Penicillium multicolor IAM7153
# CONDITION_NOTES: concentrated soybean protein, substrate concentration 2%, heat treatment of enzyme no, reaction time 6 h
VALUE_KIND: Decomposition efficiency: ratio of each glycoside/aglycon within its isoflavone family (%)

A. CC(=O)OC[C@H]1O[C@@H](Oc2cc(O)c3c(=O)c(-c4ccc(O)cc4)coc3c2)[C@H](O)[C@@H](O)[C@@H]1O
B. COc1cc2c(=O)c(-c3ccc(O)cc3)coc2cc1O[C@@H]1O[C@H](COC(C)=O)[C@@H](O)[C@H](O)[C@H]1O
input: Endpoint returns whichever of A and B has the numerically higher Decomposition efficiency: ratio of each glycoside/aglycon within its isoflavone family. Please reply using the label of the selected record.
output: A
